Molecular target: T1, Rnd2 GTPase (residues 1-227), loaded with GMPPNP (UniProt P52198 1-227)
T1 sequence (looked up): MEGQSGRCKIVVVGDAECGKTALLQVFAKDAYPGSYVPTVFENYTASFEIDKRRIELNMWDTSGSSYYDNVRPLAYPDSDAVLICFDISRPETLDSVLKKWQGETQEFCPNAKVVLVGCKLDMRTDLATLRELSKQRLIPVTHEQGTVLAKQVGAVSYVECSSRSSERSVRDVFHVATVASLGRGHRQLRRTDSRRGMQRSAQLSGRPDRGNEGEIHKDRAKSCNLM
Test: ITC
A collection of binders and their measured Ka
Please answer using the number first and the unit second.

>  <Binder>
plexin-B1 Rho GTPase binding domain (RBD), residues 1746-1852 (domain or fragment, human, UniProt O43157 1746-1852, looked up) YRPLTLNALLAVGPGAGEAQGVPVKVLDCDTISQAKEKMLDQLYKGVPLTQRPDPRTLDVEWRSGVAGHLILSDEDVTSEVQGLWRRLNTLQHYKVPDGATVALVPC

>  <Measurement>
40000 M⁻¹

$$$$
>  <Binder>
plexin-B1 RBD L1815Y (domain or fragment) YRPLTLNALLAVGPGAGEAQGVPVKVLDCDTISQAKEKMLDQLYKGVPLTQRPDPRTLDVEWRSGVAGHYILSDEDVTSEVQGLWRRLNTLQHYKVPDGATVALVPC

>  <Measurement>
90000 M⁻¹

$$$$

In the following, a different binder is considered.
Dear colleague, please send me the reported Ka for plexin-A2 Rho GTPase binding domain (RBD), residues 1490-1600 (domain or fragment, human, UniProt O75051 1490-1600, looked up) LIRQQIEYKTLILNCVNPDNENSPEIPVKVLNCDTITQVKEKILDAVYKNVPYSQRPRAVDMDLEWRQGRIARVVLQDEDITTKIEGDWKRLNTLMHYQVSDRSVVALVPK when you can. 90000 M⁻¹
